What follows is literature data on pKi for Amine oxidase [flavin-containing] B (Bos taurus, UniProt P56560).
pKi: −log10 of the molar value.
Would you please tag the item 1 when its pKi is 6 or above, and 0 when it is below?

Molecule	Category
O=C1O[C@H](CO)CN1n1cccc1	0
Cn1cccc1C(=O)[C@H](c1ccccc1)N1CCCC1	0
NC(=S)N1N=C(c2cccs2)CC1c1ccco1 (stereo unspecified)	1
O=C(Nc1ccccc1NC(=O)c1cc2ccccc2oc1=O)c1cc2ccccc2oc1=O	0
C=CCn1ccc(N2C[C@H](CO)OC2=O)c1	0

Next item in the queue.
Request: Test whether the molecule COc1ccc(C2CC(CN)OC2=O)cc1 (stereo unspecified) records pKi of 6 or higher.
Result: 0

###

Literature compilation of log10 of Ki measurements on Amine oxidase [flavin-containing] B (Bos taurus, UniProt P56560).
The figures below represent log10 of Ki, where Ki is stated in µM.

Completed entries (count: 10):
Molecule	System name	log10 of Ki
CN(C)C[C@H]1CN(n2cccc2)C(=O)O1	Amine oxidase [flavin-containing] B (Bos taurus, UniProt P56560)	2.15
NC(=S)N1N=C(c2ccc(F)cc2)C[C@@H]1c1ccc(Cl)cc1	Amine oxidase [flavin-containing] B (Bos taurus, UniProt P56560)	0.15
NCC1CN(c2ccc(OCc3cccc(Cl)c3)cc2)C(=O)O1 (stereo not given)	Amine oxidase [flavin-containing] B (Bos taurus, UniProt P56560)	1.83
NCCOCc1cccc(Cl)c1	Amine oxidase [flavin-containing] B (Bos taurus, UniProt P56560)	0.70
COC[C@H]1CN(c2ccc(OCC[C@@H](O)C(F)(F)F)cc2)C(=O)O1	Amine oxidase [flavin-containing] B (Bos taurus, UniProt P56560)	-0.66
NC(=S)N1N=C(c2ccc(F)cc2)CC1c1ccc(Cl)cc1 (stereo not given)	Amine oxidase [flavin-containing] B (Bos taurus, UniProt P56560)	0.00
Cc1ccc(C2=NN(C(N)=S)C(c3ccco3)C2)cc1 (stereo not given)	Amine oxidase [flavin-containing] B (Bos taurus, UniProt P56560)	-0.77
COC[C@@H]1CN(n2cccc2)C(=O)O1	Amine oxidase [flavin-containing] B (Bos taurus, UniProt P56560)	1.36
C=CCn1ccc(N2C[C@H](CN=[N+]=[N-])OC2=O)c1	Amine oxidase [flavin-containing] B (Bos taurus, UniProt P56560)	2.00
NC(=S)N1N=C(c2cccs2)CC1c1ccc(Cl)cc1 (stereo not given)	Amine oxidase [flavin-containing] B (Bos taurus, UniProt P56560)	-2.22

Request: Consider the molecule shown here: NC(=S)N1N=C(c2ccc(F)cc2)C[C@H]1c1ccc(Cl)cc1 What is its recorded log10 of Ki?
Result: 0.38

Request: Could you share which log10 of Ki value was measured for CNCC1CC(=O)N(c2ccc(OC)cc2)C1 (stereo not given) ?
Result: 4.70

Request: Data request, read-out log10 of Ki, for COc1ccc(N2CC(CN(C)C)OC2=O)cc1 (stereo not given)
Result: 4.12

###

Below, Ki values reported for Amine oxidase [flavin-containing] B (Bos taurus) across several publications.
- System name: Amine oxidase [flavin-containing] B (Bos taurus)
- Sequence (P56560 whole entry): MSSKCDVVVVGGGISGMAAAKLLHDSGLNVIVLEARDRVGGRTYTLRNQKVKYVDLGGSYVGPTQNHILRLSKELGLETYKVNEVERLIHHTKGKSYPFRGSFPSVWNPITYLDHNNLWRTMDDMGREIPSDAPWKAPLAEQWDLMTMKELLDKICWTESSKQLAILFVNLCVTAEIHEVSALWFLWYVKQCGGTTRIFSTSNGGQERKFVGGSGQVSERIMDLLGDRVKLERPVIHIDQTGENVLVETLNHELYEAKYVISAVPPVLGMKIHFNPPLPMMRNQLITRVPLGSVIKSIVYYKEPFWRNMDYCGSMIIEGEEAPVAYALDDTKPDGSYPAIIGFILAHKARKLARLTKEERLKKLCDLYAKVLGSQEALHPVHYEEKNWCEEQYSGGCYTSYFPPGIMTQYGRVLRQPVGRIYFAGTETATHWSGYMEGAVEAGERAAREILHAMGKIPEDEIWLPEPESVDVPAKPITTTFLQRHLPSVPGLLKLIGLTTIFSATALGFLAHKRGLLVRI
Show the value, then the unit it is measured in.

Please review the entries below; each comes with its answer.
Compound	System name	Ki
NCC12C3C4C1C1C2C3C41c1ccccc1 (configuration not stated)	Amine oxidase [flavin-containing] B (Bos taurus)	120 µM
Cc1ccc(C2=NN(C(N)=S)C(c3ccc(Cl)cc3)C2)cc1 (configuration not stated)	Amine oxidase [flavin-containing] B (Bos taurus)	0.0015 µM
COc1ccc([C@H]2C[C@@H](CN)OC2=O)cc1	Amine oxidase [flavin-containing] B (Bos taurus)	6670 µM
Cn1ccc(N2C[C@H](CN=[N+]=[N-])OC2=O)c1	Amine oxidase [flavin-containing] B (Bos taurus)	360 µM
O=C1O[C@@H](CO)CN1n1cccc1.O=C1O[C@H](CO)CN1n1cccc1	Amine oxidase [flavin-containing] B (Bos taurus)	2 µM
NCC12C3C4C1C1C2C3C41C1CC1 (configuration not stated)	Amine oxidase [flavin-containing] B (Bos taurus)	260 µM

Request: Query: Ki; subject: COc1ccc(N2CC(CN(C)C)CC2=O)cc1 (configuration not stated)
Result: 300000 µM

Request: Look at this compound and give its reported Ki. NC[C@H]1CN(n2cccc2)C(=O)O1
Result: 4.4 µM

Request: // lookup Ki for CCn1ccc(N2C[C@H](CNC)OC2=O)c1
Result: 18 µM

Request: Bench note: what Ki did Cc1ccc(C2CC(c3ccc(F)cc3)=NN2C(N)=S)cc1 (configuration not stated) show?
Result: 0.05 µM

Request: Name the reported Ki value associated with the compound COc1ccc(N2CC(CN)CC2=O)cc1 (configuration not stated)
Result: 6700 µM

Request: Give the measured Ki of CCn1ccc(N2C[C@H](CO)OC2=O)c1 .
Result: 0.3 µM

###

Published Ki for Amine oxidase [flavin-containing] B (Bos taurus), assembled from different documents, is shown next.
Rule: Ki below 300 µM gives T. Equal to or above 300 µM gives F.

Check out these entries, answers already filled in.
Compound	Category
NC[C@@H]1CN(n2cccc2)C(=O)O1	T
NC[C@@H]1C[C@H](c2ccccc2)C(=O)O1	F
COc1ccc2cc(C(=O)NCCCCNC(=O)c3cc4ccc(OC)cc4oc3=O)c(=O)oc2c1	T
Cc1ccc(C2CC(c3cccs3)=NN2C(N)=S)cc1 (configuration not stated)	T
CNCC1CN(c2ccc(OC)cc2)C(=O)O1 (configuration not stated)	F

Request: Check if Ki falls below 300 µM for COc1ccccc1C1CC(c2ccc(O)cc2O)=NN1C(C)=O (single isomer, unassigned; (-)) .
Result: F

Request: Problem: For the compound COC[C@H]1CN(n2cccc2)C(=O)O1 , is Ki under 300 µM?
Result: T

###

- System name: Amine oxidase [flavin-containing] B (Bos taurus, UniProt P56560)
- Sequence (P56560 whole entry): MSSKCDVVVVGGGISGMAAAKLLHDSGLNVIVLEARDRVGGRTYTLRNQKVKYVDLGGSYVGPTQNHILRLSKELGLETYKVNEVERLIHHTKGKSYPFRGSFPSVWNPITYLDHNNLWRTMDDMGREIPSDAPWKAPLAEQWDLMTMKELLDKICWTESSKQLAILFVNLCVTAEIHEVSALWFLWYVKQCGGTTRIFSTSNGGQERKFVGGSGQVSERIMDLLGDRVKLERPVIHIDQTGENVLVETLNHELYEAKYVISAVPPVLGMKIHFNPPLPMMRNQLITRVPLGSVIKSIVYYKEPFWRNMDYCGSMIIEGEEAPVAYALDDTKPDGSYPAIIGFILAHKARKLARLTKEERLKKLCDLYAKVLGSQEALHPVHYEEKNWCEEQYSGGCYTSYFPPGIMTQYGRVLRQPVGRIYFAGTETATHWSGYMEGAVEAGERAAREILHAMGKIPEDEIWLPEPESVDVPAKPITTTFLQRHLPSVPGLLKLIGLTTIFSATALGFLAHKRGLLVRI
Collected set of Ki measured with Amine oxidase [flavin-containing] B (Bos taurus, UniProt P56560) across studies.
Give the number; µM is assumed, so skip it.

Here is how some molecules turned out for Ki.
Mol smiles	Measured endpoint	Measurement
NC[C@@H]1C[C@@H](c2ccccc2)C(=O)O1	Ki	5100
Cc1ccc(C2=NN(C(N)=S)[C@@H](c3ccc(Cl)cc3)C2)cc1	Ki	0.0027

Please look at the following molecule next.
Request: Lab request: please report Ki under test system Amine oxidase [flavin-containing] B (Bos taurus, UniProt P56560) for O=C(NCCCCNC(=O)c1cc2ccccc2oc1=O)c1cc2ccccc2oc1=O
Result: 1
